# Assay System: hGcgR (Homo sapiens, UniProt P47871)
# Sequence (P47871 26-477): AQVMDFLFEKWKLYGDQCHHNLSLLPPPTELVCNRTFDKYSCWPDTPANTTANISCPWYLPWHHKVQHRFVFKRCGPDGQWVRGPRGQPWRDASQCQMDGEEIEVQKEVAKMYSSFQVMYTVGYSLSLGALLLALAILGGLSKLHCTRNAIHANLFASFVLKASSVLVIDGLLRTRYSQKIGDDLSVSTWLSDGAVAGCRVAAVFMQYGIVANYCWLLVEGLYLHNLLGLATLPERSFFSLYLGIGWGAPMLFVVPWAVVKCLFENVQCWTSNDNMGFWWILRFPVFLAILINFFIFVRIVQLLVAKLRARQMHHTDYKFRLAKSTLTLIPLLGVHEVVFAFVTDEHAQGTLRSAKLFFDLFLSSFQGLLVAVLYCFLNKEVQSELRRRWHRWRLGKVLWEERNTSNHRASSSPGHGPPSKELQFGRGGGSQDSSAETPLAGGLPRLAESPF
# Experiment Summary: Functional cAMP activation in the presence of 0.1% casein (no HSA);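 further: intracellular cAMP rise after 30 min at 37 °C, read by HTRF against a cAMP standard curve, scaled from buffer only (0%) to maximal control ligand response (100%)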
# Assay type: cell-based
# Cond: in the presence of 0.1% casein (no HSA); geometric mean; read-out: Relative cAMP EC50, hGcgR
pEC50: −log10 of the molar value. Starred links: 1 amine or outer side, 2 acyl side, 3 side chain; linkers in the order of their positions; H or OH if unused. Non-standard residues stand in square brackets, D forms with d. Groups on a side chain read outwards from the residue. No end group written: not given here. *: point of attachment. C20 diacid = O=C(O)CCCCCCCCCCCCCCCCCCC(=O)*; C18 diacid = O=C(O)CCCCCCCCCCCCCCCCC(=O)*; αMePhe(2-F) = C[C@](N)(Cc1ccccc1F)C(=O)O; γGlu = O=C(O)[C@H](CCC(=O)[*:2])N[*:1]; αMe4Pal = C[C@](N)(Cc1ccncc1)C(=O)O; αMeY = C[C@](N)(Cc1ccc(O)cc1)C(=O)O; 4Pal = N[C@@H](Cc1ccncc1)C(=O)O; αMeL = CC(C)C[C@](C)(N)C(=O)O; αMeS = C[C@](N)(CO)C(=O)O; Orn = NCCC[C@H](N)C(=O)O; AEEA = NCCOCCOCC(=O)O; Aib = CC(C)(N)C(=O)O
Overview of reported pEC50 across a group of substances:

{"Substance": "H-Y[Aib]QGTFTSD[4Pal]S[Orn][αMeL]LD[Orn]K([γGlu-γGlu-C18 diacid])AQ[αMe4Pal]EFIEYLLAGGPSSGAPPPSGSEE-NH2 [Example 1003]", "pEC50": 8.29}
{"Substance": "H-Y[Aib]QGTFTSDYSI[αMeL]LDKQAAK([AEEA-AEEA-γGlu-C20 diacid])QFVEWLIA[Aib]GPSSGEPPPGEG-NH2 [Example 333]", "pEC50": 8.15}
{"Substance": "H-Y[Aib]QGT[αMePhe(2-F)]TSDFSILLDKQAQK([AEEA-AEEA-γGlu-C20 diacid])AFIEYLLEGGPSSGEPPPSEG-NH2 [Example 346]", "pEC50": 7.81}
{"Substance": "H-Y[Aib]QGTFTSDFSK[αMeL]LDKK([AEEA-γGlu-C18 diacid])AQ[Aib]AFIE[αMe4Pal]LIE[Aib]GPSSGAPPPSGS-NH2 [Example 912]", "pEC50": 8.42}
{"Substance": "H-Y[Aib]QGTFTSD[4Pal]S[Orn][αMeL]LDKK([γGlu-γGlu-C18 diacid])AQ[αMe4Pal]AFIE[αMeY]LIEGGPSSGAPPPSGSEE-NH2 [Example 967]", "pEC50": 8.71}
{"Substance": "H-Y[Aib]QGTFTSD[4Pal][αMeS]Q[αMeL]LD[Orn]K([dE-γGlu-C18 diacid])AQ[αMe4Pal]QFIQ[αMeY]LIAGGPSSGEPPPSGGGE-NH2 [Example 1133]", "pEC50": 8.53}
{"Substance": "H-Y[Aib]QGTFTSDFS[Orn][αMeL]LDKK([AEEA-γGlu-C18 diacid])AQ[Aib]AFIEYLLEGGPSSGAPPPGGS[AEEA]-NH2 [Example 66]", "pEC50": 8.43}
{"Substance": "H-Y[Aib]QGTFTSDFS[Orn][αMeL]LDKK([AEEA-γGlu-C18 diacid])AQ[Aib]AFIEYLLEGGPSSGAPPPGG[4Pal]-NH2 [Example 261]", "pEC50": 8.26}
{"Substance": "H-Y[Aib]QGTFTSDFSK[αMeL]LDKK([AEEA-γGlu-C20 diacid])AQ[Aib]AFIEYLLEGGPSSGEPPPEEG-NH2 [Example 35]", "pEC50": 8.36}
{"Substance": "H-Y[Aib]QGTFTSD[4Pal]SR[αMeL]LDKK([AEEA-γGlu-C18 diacid])AQ[Aib]AFIE[αMeY]LIEGGPSSGAPPPSGS-NH2 [Example 837]", "pEC50": 8.14}
{"Substance": "H-Y[Aib]QGTFTSDFSK[αMeL]LDKK([AEEA-γGlu-C18 diacid])AQ[Aib]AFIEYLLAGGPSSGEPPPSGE-NH2 [Example 23]", "pEC50": 8.29}
{"Substance": "Y[Aib]QGTFTSD[4Pal]SR[αMeL]LDKK([AEEA-γGlu-C18 diacid])AQ[αMe4Pal]AFIE[αMe4Pal]LIEGGPSSGAPPPSGS-NH2 [Example 950]", "pEC50": 8.72}

Source of measurements: patent US20240270821A1
